# Target Or System: T1, mUHRF1 V1 P-patch/R-S* (P293A/P294A/P295A/R298A/N299A/T300A/G301A/K302A/S303A), full-length (mouse, UniProt Q8VDF2-1 1-782, P293A | P294A | P295A | R298A | N299A | T300A | G301A | K302A | S303A)
# T1 construct: UHRF1, mouse, splicing variant V1, NCBI NP_001104550.1, with nine alanine substitutions in Linker 2; source: E. coli BL21(DE3) RIL, purified (HisPur Cobalt-Resin)
# T1 sequence (looked up): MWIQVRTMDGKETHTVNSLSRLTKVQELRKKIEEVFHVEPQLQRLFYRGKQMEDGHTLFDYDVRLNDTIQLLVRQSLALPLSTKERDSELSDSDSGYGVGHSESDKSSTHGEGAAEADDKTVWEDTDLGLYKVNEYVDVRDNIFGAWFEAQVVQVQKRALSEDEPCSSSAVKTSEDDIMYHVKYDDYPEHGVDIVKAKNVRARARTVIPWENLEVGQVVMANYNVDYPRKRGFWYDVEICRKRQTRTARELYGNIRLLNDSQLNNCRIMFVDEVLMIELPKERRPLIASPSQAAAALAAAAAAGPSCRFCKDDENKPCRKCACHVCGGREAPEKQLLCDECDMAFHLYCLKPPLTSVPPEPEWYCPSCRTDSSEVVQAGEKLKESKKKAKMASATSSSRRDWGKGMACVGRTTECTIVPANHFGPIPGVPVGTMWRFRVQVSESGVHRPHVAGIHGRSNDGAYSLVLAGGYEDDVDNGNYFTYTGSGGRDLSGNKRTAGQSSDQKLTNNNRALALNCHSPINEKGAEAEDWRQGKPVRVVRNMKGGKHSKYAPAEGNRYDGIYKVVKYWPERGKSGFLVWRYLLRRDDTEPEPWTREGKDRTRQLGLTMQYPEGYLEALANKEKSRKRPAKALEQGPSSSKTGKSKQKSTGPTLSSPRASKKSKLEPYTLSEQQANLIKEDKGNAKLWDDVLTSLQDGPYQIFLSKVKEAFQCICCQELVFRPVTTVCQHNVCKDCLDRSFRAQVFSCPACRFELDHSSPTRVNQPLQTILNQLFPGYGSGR
# Experimental Protocol: fluorescence polarisation; FAM-labelled H3(1-15) peptide, recombinant protein titrated; RT; as described (ref. 28)
# Experimental Parameters: both partners purified
Measured Metric: pKd
The scale used: pKd is minus the common logarithm of the concentration in molar units.

Entry under review: ARTKQTARKSTGGKA (fluorescein (FAM) on the N-terminus; K9 trimethylated, histone H3 aa 1-15; also called FAM-H3K9me3; source: synthetic peptide (Synpeptide Co., Ltd)) [FAM-H3(1-15)K9me3 peptide (N-terminally fluorescein-labelled)] . Reported pKd?
4.86
